assay_remarks: HUVEC growth inhibition – cell-based, human, primary screen (AID 575);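 note: 100% = median of untreated cell wells with 0.1% DMSO on each plate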
test_context: HUVEC proliferation, CellTiter-Glo luminescence, 72 h; at 10 µM
Calls of active or inactive are those of the source.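 Rule for the calls: active = viability at or below 30% in both replicate assays; inconclusive = viability at or below 30% in just one of the two assays; inactive = the rest.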
// classify into t (active), f (inactive)

Below are worked cases with known answers.
COc1ccc(S(=O)(=O)Cc2ccc(C(=O)NCCc3ccc(S(N)(=O)=O)cc3)o2)cc1 = f
CCN1CCN(C(=O)c2cn(CC)c3ccc(S(=O)(=O)N(C)C)cc3c2=O)CC1 = f
Cc1csc(NC(=O)C(Cc2ccccc2)n2cccc2)n1 (stereo not drawn) = f
COC(=O)C(C)Sc1nnc2n(-c3cccc(C)c3)c(=O)c3c4c(sc3n12)CCCC4 (stereo not drawn) = f
CCOc1ccc(N(CC(=O)OC)S(=O)(=O)c2ccc(OC)c(OC)c2)cc1 = f

Would you mind telling me which call this test gave `CCCSc1nc2c(cnn2-c2ccc(C)cc2)c(=O)[nH]1` ? t

Would you mind telling me which call this test gave `COc1ccc(Cl)cc1S(=O)(=O)N1CCN(c2ccc(F)cc2)CC1` ? f

Would you mind telling me which call this test gave CC1CCCCN1CCNC(=O)c1ccc2c(=O)n(CCc3ccccc3)c(=O)[nH]c2c1 (stereo not drawn) ? f

Would you mind telling me which call this test gave `O=C1CCCc2c1cc(C(=O)NCCCN1CCOCC1)c(=O)n2-c1ccc(Cl)cc1` ? f

Would you mind telling me which call this test gave `Cc1c(NC(=O)c2ccc(Br)o2)c(=O)n(-c2ccccc2)n1C` ? f

Would you mind telling me which call this test gave `COc1ccc(CN2C(=O)CN=C2Nc2ccc(C)cc2C)cc1` ? f

Would you mind telling me which call this test gave `COc1cccc(NC(=O)c2nc3nc(C)cc(C(F)F)n3n2)c1` ? f

Would you mind telling me which call this test gave O=C(Nc1cccc(F)c1)C1C2C=CC3(CN(CCCN4CCOCC4)C(=O)C13)O2 (stereo not drawn) ? f

Would you mind telling me which call this test gave `COc1ccc(C)cc1NC(=O)CNC(=O)Cn1ccc2ccccc2c1=O` ? f

Would you mind telling me which call this test gave `c1ccc(C2(Cn3ccc4ccccc43)OCCO2)cc1` ? f

----------
assay_remarks: MRP1 drug-resistance reversers in H69AR cells – cell-based, doxorubicin co-treatment, pilot screen (AID 601)
test_context: H69AR cells + 2 uM doxorubicin, CellTiter-Glo, 72 h; measured here: viability with 2 uM doxorubicin; at 10 µM; stronger effect = lower value
assay_metric: viability (%)
Answers are plain numbers, in %.

CC(=O)Nc1ccc(S(=O)(=O)N2CCN(C(=O)CCC3CCCC3)CC2)cc1 = 103
NC(=O)CN1C(=O)C(O)(CC(=O)c2ccccc2O)c2ccccc21 (stereo unspecified) = 97
C=CCn1c(SCc2cccc(C#N)c2)nnc1-c1ccccc1O = 91.8
O=S(=O)(NCC(O)COCc1ccco1)c1cccs1 (stereo unspecified) = 84.3
COc1ccc(OC)c(C2=NOC(C(=O)Nc3cc(C)nn3-c3ccccc3)C2)c1 (stereo unspecified) = 85.5

Let us move to another entry and its viability.
So what's the measured viability for this one? `COc1ccc(N2CCN(CCCNS(=O)(=O)c3c(C)noc3/C=C/N(C)C)CC2)cc1` 92.8

----------
assay_remarks: viability of PTEN-null HCT116 cells – cell-based, HCT116 clonal line, CellTiter-Glo, pilot screen (AID 824);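 note: 0% = 20 µM Hyamine control and 100% = vehicle cell control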
test_context: HCT116 PTEN-deleted viability, 60 h, at 10 µM, stronger effect = lower value
Records with an inconclusive call do not appear.
assay_metric: viability (%)
Give bare numbers, in %.

Field: example entries. Status: answers known.
COC(=O)c1ccsc1NC(=O)CN1C(=O)CCC1=O = 98.7
COc1ccc(C)cc1NC(=O)CNC(=O)Cn1ccc2ccccc2c1=O = 90.3
Nc1nc(SCC(=O)OCc2ccccc2)[nH]c(=O)c1NC(=O)c1ccco1 = 98.7
CCOC(=O)N1CCC(Nc2nc3ccccc3n3cnnc23)CC1 = 95.2
CC(=O)N1c2c(cc(Br)cc2S(=O)(=O)N2CCN(c3ccccn3)CC2)CC1C (configuration not stated) = 95.6
O=C(O)c1ccc(NS(=O)(=O)c2cc(Cl)ccc2Cl)cc1 = 95.3
CCOC(=O)c1ccc(NC(=O)Cn2cc3c(n2)CCC(C)C3)cc1 (configuration not stated) = 106
Cc1ccc(C)n1-c1ccc(-n2cnnn2)cc1 = 10.3

Working through the 5 compounds below one at a time, give viability for each.
1. COc1ccc(S(=O)(=O)N2CCC(C(=O)Nc3c(F)cccc3F)CC2)cc1
2. Cc1cccc(NC(=O)c2ccc(S(=O)(=O)N(C)C)cc2)c1
3. COc1cccc(NC(=O)Cn2cnc3sc(C)c(S(=O)(=O)N4CCN(C)CC4)c3c2=O)c1
4. COc1ccc(NS(=O)(=O)c2ccc(NC(C)=O)cc2)cc1OC
5. Cn1c(=O)oc2cc(S(=O)(=O)N3CCCC(C(=O)NCC4COc5ccccc5O4)C3)ccc21 (configuration not stated)

101
100
83.2
85.2
90.4
